- assayed target: Thymidylate synthase (Homo sapiens, UniProt P04818)
- Sequence (P04818 whole entry): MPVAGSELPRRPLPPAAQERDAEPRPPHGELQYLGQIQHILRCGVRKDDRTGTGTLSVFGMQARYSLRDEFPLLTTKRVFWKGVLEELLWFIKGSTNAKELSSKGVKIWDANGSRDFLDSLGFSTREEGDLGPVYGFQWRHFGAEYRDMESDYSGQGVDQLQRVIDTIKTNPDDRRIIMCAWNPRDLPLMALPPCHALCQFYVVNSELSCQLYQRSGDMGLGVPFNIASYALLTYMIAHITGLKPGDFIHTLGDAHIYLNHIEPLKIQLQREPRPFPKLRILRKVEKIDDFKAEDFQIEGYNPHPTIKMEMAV
- method description: Inhibition of human TS by spectrophotometric analysis
- details: read-out: Ki
measure name: Ki (µM)
Respond numerically; units are µM and should not be typed.

Need Ki of COC(=O)C1CCN(C(=O)c2ccc(N(CCO)Cc3cnc4nc(N)nc(N)c4n3)cc2)CC1 , thanks.
64

====

- method description: Toxicity against human MRC5 cells assessed as growth inhibition at 100 ug/mL
- Assay type: cell-based
- details: read-out: GI
measure name: inhibition at 100 ug/mL (%)
Write the answer as a number in %, unit excluded.

Look up inhibition at 100 ug/mL: CCOC(=O)CN(Cc1cnc2nc(N)nc(N)c2n1)c1ccc(C(=O)N2CCC(C(=O)OC)CC2)cc1
28

====

- System: Leishmania mexicana
- method description: Antiparasitic activity against Leishmania mexicana promastigotes assessed as parasite growth at 50 ug/mL
- Assay type: functional
Listed here: items and their measured Activity.
Answer as a quantity: numeral, then unit.

>  <smiles repr>
CCOC(=O)CN(Cc1cnc2nc(N)nc(N)c2n1)c1ccc(C(=O)N2CCC(C(=O)OC)CC2)cc1

>  <assayed target>
Leishmania mexicana

>  <measure name>
Activity

>  <observed>
102.3%

$$$$
>  <smiles repr>
CCc1cc(C(=O)N2CCC(C(=O)OC)CC2)ccc1NCc1cnc2nc(N)nc(N)c2n1

>  <assayed target>
Leishmania mexicana

>  <measure name>
Activity

>  <observed>
90.6%

$$$$
>  <smiles repr>
CCc1nc(N)nc(N)c1-c1ccc(Cl)cc1

>  <assayed target>
Leishmania mexicana

>  <measure name>
Activity

>  <observed>
102.5%

$$$$
>  <smiles repr>
NC(=O)C1CCN(C(=O)c2ccc(NCc3cnc4nc(N)nc(N)c4n3)cc2)CC1

>  <assayed target>
Leishmania mexicana

>  <measure name>
Activity

>  <observed>
88.5%

$$$$
>  <smiles repr>
COC(=O)C1CCN(C(=O)c2ccc(N(CCO)Cc3cnc4nc(N)nc(N)c4n3)cc2)CC1

>  <assayed target>
Leishmania mexicana

>  <measure name>
Activity

>  <observed>
100.1%

$$$$

Field request: Activity | item: COC(=O)C1CCN(C(=O)c2ccc(NCc3cnc4nc(N)nc(N)c4n3)cn2)CC1
95.6%

Reported Activity for COC(=O)C1CCN(C(=O)c2ccc(NCc3cnc4nc(N)nc(N)c4n3)cc2)CC1 : what is it?
111.6%

====

- method description: Toxicity against human MRC5 cells assessed as growth inhibition
- Assay type: cell-based
- details: read-out: ED50 (the source's name)
measure name: GI50

Before answering, review these 3 worked examples.
>  <smiles repr>
CCc1nc(N)nc(N)c1-c1ccc(Cl)cc1

>  <GI50>
16.2 µg/mL

$$$$
>  <smiles repr>
NC(=O)C1CCN(C(=O)c2ccc(NCc3cnc4nc(N)nc(N)c4n3)cc2)CC1

>  <GI50>
51 µg/mL

$$$$
>  <smiles repr>
CCc1cc(C(=O)N2CCC(C(=O)OC)CC2)ccc1NCc1cnc2nc(N)nc(N)c2n1

>  <GI50>
21.8 µg/mL

$$$$

Dear colleague, I am looking for the recorded GI50 of the following compound: COC(=O)C1CCN(C(=O)c2ccc(NCc3cnc4nc(N)nc(N)c4n3)cc2)CC1
23.4 µg/mL

====

Recorded Activity values for a group of molecules are listed next.
- Tested on: Leishmania mexicana
- method description: Inhibition of pteridine reductase in Leishmania mexicana promastigote assessed as increase in pyrimethamine-induced growth inhibition by measuring parasite growth at 50 ug/mL
- Design: scale not given: the % may be the effect or the level left
Note: unit % is implicit; provide only the numeric part.

>  <smiles repr>
CCOC(=O)CN(Cc1cnc2nc(N)nc(N)c2n1)c1ccc(C(=O)N2CCC(C(=O)OC)CC2)cc1

>  <value unit>
%

>  <Activity>
21.9

$$$$
>  <smiles repr>
COC(=O)C1CCN(C(=O)c2ccc(N(CCO)Cc3cnc4nc(N)nc(N)c4n3)cc2)CC1

>  <value unit>
%

>  <Activity>
12.9

$$$$
>  <smiles repr>
COC(=O)C1CCN(C(=O)c2ccc(NCc3cnc4nc(N)nc(N)c4n3)cn2)CC1

>  <value unit>
%

>  <Activity>
17.6

$$$$
>  <smiles repr>
CCc1cc(C(=O)N2CCC(C(=O)OC)CC2)ccc1NCc1cnc2nc(N)nc(N)c2n1

>  <value unit>
%

>  <Activity>
19.6

$$$$
>  <smiles repr>
NC(=O)C1CCN(C(=O)c2ccc(NCc3cnc4nc(N)nc(N)c4n3)cc2)CC1

>  <value unit>
%

>  <Activity>
15.7

$$$$

Pending molecule:
So what's the measured Activity for this one? COC(=O)C1CCN(C(=O)c2ccc(NCc3cnc4nc(N)nc(N)c4n3)cc2)CC1
24.4
